Target: OATP1B1 (Homo sapiens)
Construct: expressed in transfected cells; host or cells: HEK293 (recombinant baculovirus-mediated transduction)
Test: Irreversible inhibition (reversibility) assay of OATP1B1
Type: cell-based
Conditions: 1 µM 2′,7′-dichlorofluorescein, 5 min; read-out: IC50 OATP1B1, inhibitor present only during the transport assay
reported.property: IC50 (µM)

a: Cc1onc(-c2c(Cl)cccc2Cl)c1C(=O)N[C@@H]1C(=O)N2[C@@H]1SC(C)(C)[C@@H]2C(=O)O
b: Cc1onc(-c2c(F)cccc2Cl)c1C(=O)N[C@@H]1C(=O)N2[C@@H]1SC(C)(C)[C@@H]2C(=O)O
Query: IC50 comparison. Which is larger, a or b ? Give the label under which the chosen entry appears.
Response: b
(b: 15.6 µM, a: 4.82 µM)

* * *

Molecular target: P-gp (Homo sapiens)
Sequence (P08183 whole entry): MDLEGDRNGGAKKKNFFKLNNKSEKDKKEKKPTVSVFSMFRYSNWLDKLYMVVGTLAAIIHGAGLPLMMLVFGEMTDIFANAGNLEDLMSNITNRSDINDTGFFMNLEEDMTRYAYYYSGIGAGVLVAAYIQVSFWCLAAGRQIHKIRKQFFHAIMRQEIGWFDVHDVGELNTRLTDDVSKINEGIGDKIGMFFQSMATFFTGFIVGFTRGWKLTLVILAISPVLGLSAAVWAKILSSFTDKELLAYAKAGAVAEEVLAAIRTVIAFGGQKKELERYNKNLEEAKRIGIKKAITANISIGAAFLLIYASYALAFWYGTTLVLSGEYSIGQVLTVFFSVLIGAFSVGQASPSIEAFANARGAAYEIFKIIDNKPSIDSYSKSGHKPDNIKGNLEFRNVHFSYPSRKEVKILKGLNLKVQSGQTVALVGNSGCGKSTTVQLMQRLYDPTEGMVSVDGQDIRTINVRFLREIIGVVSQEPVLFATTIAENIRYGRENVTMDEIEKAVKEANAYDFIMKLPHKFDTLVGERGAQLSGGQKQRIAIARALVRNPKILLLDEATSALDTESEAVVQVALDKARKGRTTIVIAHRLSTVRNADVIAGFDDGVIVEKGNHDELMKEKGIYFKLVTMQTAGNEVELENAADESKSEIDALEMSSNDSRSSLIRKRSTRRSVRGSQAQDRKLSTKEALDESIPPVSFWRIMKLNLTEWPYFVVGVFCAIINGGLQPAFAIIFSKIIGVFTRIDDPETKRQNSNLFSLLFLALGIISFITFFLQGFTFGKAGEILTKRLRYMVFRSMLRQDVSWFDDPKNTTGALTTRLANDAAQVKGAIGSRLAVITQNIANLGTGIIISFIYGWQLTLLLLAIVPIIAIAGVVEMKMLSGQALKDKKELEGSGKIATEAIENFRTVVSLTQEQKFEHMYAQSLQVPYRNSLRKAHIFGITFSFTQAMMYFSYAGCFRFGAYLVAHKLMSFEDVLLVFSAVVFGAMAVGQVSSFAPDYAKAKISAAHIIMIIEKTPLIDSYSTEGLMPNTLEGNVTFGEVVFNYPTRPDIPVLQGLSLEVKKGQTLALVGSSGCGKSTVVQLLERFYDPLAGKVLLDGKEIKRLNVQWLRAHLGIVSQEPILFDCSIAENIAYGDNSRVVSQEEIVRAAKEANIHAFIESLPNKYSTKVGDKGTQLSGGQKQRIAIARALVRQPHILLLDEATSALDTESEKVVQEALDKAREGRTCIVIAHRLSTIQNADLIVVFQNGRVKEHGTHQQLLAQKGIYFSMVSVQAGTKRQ
reported.property: IC50

Query: Find IC50 (P-gp (Homo sapiens)) for the entry Cc1onc(-c2c(F)cccc2Cl)c1C(=O)N[C@@H]1C(=O)N2[C@@H]1SC(C)(C)[C@@H]2C(=O)O [Flucloxacillin]
Response: ≥ 833 µM

* * *

Tested on: OAT1
Construct: expressed in transfected cells; host or cells: HEK293 (recombinant baculovirus-mediated transduction)
Experiment: OAT1 inhibition, fluorescein uptake into HEK293 cells
Assay type: cell-based
Details: human, HEK293 cells transiently expressing OAT1, pH 7.4, probe fluorescein 5 µM; 200 μM inhibitor, 5 μM fluorescein; read-out: inhibition of fluorescein transport into OAT1-expressing cells
Some compounds, each annotated with its measured inhibition at 5 min, 200 μM.

# smiles.repr, tested.system, inhibition at 5 min, 200 μM
rows = [
    ("Cc1onc(-c2c(F)cccc2Cl)c1C(=O)N[C@@H]1C(=O)N2[C@@H]1SC(C)(C)[C@@H]2C(=O)O", "OAT1", "< 50%"),
]

// next item, inhibition at 5 min, 200 μM requested
Query: Requested field: inhibition at 5 min, 200 μM. Item: Cc1onc(-c2c(Cl)cccc2Cl)c1C(=O)N[C@@H]1C(=O)N2[C@@H]1SC(C)(C)[C@@H]2C(=O)O
Response: < 50%

* * *

Target: OATP1B1 (Homo sapiens)
Construct: expressed in transfected cells; host or cells: HEK293 (recombinant baculovirus-mediated transduction)
Sequence (Q9Y6L6 1-691): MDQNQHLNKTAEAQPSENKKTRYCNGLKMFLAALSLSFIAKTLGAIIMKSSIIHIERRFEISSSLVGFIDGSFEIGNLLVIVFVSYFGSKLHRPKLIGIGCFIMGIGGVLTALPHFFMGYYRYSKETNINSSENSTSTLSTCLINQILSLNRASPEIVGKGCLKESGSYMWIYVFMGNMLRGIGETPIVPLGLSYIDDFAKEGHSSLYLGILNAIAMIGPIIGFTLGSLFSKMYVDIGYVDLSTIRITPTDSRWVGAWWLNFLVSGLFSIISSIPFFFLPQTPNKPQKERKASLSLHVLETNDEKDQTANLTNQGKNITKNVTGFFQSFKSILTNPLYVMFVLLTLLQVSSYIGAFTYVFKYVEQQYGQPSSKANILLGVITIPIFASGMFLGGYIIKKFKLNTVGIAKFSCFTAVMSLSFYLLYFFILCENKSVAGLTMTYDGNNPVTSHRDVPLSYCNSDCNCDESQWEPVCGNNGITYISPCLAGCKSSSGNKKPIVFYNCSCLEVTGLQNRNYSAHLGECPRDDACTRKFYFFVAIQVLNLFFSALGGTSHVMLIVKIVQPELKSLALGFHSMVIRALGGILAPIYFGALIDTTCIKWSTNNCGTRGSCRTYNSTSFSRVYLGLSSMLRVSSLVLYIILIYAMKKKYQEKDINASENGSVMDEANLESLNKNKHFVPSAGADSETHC
Test: OATP1B1 inhibition with fluorescent substrate 2′,7′-dichlorofluorescein in HEK293 cells
Assay type: cell-based
Details: human, HEK293 cells transduced to express OATP1B1, pH 7.4, probe 2′,7′-dichlorofluorescein 1 µM, 1 µM 2′,7′-dichlorofluorescein, 30 min preincubation
Text: 8- (2- [Fluoresceinyl]aminoethylthio)adenosine- 3', 5'- cyclic monophosphate (8-Fluo-cAMP) was acquired from Biolog Life Science Institute (Bremen, Germany), 4′,5′-dibromofluorescein was acquired from Sigma-Aldrich (St. Louis, MO, USA) and 2′,7′-dichlorofluorescein was acquired from Santa Cruz Biotechnology (Dallas, TX, USA). […]
reported.property: IC50 at 5 min (µM)
Unit µM implied. Number only.

Query: Recorded IC50 at 5 min of Cc1onc(-c2c(Cl)cccc2Cl)c1C(=O)N[C@@H]1C(=O)N2[C@@H]1SC(C)(C)[C@@H]2C(=O)O [Dicloxacillin] , please.
Response: 3.59
